- test-target: T1, human neuropeptide Y2 receptor (human, UniProt P49146 1-381)
- T1 sequence (looked up): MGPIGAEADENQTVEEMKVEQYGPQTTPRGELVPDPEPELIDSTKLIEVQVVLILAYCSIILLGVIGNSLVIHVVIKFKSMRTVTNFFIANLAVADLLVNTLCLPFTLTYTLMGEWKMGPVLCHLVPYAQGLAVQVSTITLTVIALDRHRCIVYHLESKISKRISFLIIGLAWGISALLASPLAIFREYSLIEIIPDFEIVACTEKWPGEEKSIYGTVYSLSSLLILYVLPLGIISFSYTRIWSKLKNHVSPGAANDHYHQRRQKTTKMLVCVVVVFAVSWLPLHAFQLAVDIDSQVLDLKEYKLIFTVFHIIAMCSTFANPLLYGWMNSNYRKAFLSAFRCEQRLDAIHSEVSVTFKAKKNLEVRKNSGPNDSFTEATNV
- protocol-summary: cell-based or functional assay
Non-standard residues stand in square brackets, D forms with d. No end group written: not given here. Aib = CC(C)(N)C(=O)O
Below, each of the binders is paired with its reported EC50 CreLuc hNPY2R 100% hP value.
Give the value, in units of nM, as a plain number.

For orientation, consider the following solved cases.
binder	quantity-unit	EC50 CreLuc hNPY2R 100% hP
Y[Aib]EGTFTSDYSI[Aib]LEKQAQ[Aib]AFVQWLIKGGPSEPASLRHYYNWLTRQRY-NH2 (not fully specified (residue 28)) [Compound 101]	nM	26.5
YXEGTFTSDYSIXLEGQAQXAFVEWLIKGGPSSGASLRHYYNWLTRQRY (Aib at 2, 13, 20; K28 side chain: C20DA-gGlu-gGlu-gGlu-gGlu-gGlu-gGlu-eLys; C-terminal NH2) [Compound 99]	nM	85.9
YXEGTFTSDYSIXLEKQAQXAFIEWLIKGGPSSGASLRHYYNWLTRQRY (Aib at 2, 13, 20; K28 side chain: C20DA-gGlu-gGlu-gGlu-Glu-gGlu-gGlu-eLys; C-terminal NH2) [Compound 130]	nM	54.8
YXEGTFTSDYSIXLEEQAQXAFVEWLIKGGPSSGASLRHYYNWLTRQRY (Aib at 2, 13, 20; K28 side chain: C20DA-gGlu-gGlu-gGlu-gGlu-gGlu-gGlu-eLys; C-terminal NH2) [Compound 116]	nM	85.7

Now examine the next entry.
Give reported EC50 CreLuc hNPY2R 100% hP value for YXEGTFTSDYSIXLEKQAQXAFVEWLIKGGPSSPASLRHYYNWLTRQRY (Aib at 2, 13, 20; K28 side chain: C18DA-gGlu-gGlu-gGlu-gGlu-gGlu-OEG-OEG; C-terminal NH2) [Compound 140]
45.9
